experiment: Cytotoxicity against bovine articular chondrocytes assessed as cell viability at 0.1 mM by MTT assay relative to control; parameters: species or system Bos taurus; conditions: cattle, read-out: Activity
Please use y for viability at 100 µM under 90% and n for everything else, ties included.

Worked set:
CC(=O)N[C@@H]1[C@@H](O)[C@H](O)[C@@H](CO)O[C@H]1O
n
CCC[C@H](NP(=O)(Oc1ccc(OC)cc1)O[C@H]1[C@H](O)[C@@H](CO)O[C@H](O)[C@@H]1NC(C)=O)C(=O)OCC (stereo partly specified)
n

**Query** Identify whether the compound CCOC(=O)CN(C)P(=O)(Oc1ccc(OC)cc1)O[C@H]1[C@H](O)[C@@H](CO)O[C@H](O)[C@@H]1NC(C)=O (stereo partly specified) records viability at 100 µM below 90%.
**Result** y

**Query** Determine if COc1ccc(OP(=O)(N[C@H](C(=O)OCc2ccccc2)C(C)C)O[C@H]2[C@H](O)[C@@H](CO)O[C@H](OC)[C@@H]2NC(C)=O)cc1 (stereo partly specified) shows viability at 100 µM strictly lower than 90%.
**Result** n

**Query** Given the entry CCOC(=O)CN(C)P(=O)(Oc1ccc(OC)cc1)O[C@H]1[C@H](O)[C@@H](CO)O[C@H](OC)[C@@H]1NC(C)=O (stereo partly specified) , would its reported viability at 100 µM be below 90%?
**Result** n
